experiment: Protein binding in human plasma assessed as free fraction; format: ADME, cell-free
Recorded metric: fraction unbound
One number for each entry.

# fraction unbound (compound: NC1(COc2cc(F)c3c(c2)CC(CNCCC2CN(c4cnc5c(n4)NC(=O)CO5)C(=O)O2)C3)CC1 (stereo unspecified) ) is 0.4

###

target: hERG (KCNH2) (Homo sapiens); assay: Inhibition of hERG potassium channel expressed in CHO cells at 10 uM by electrophysiological patch clamp assay relative to control; type: toxicity, cell-based; settings: CHO cells expressing hERG
Task for the reader: assign each of the following molecules its reported inhibition at 10 µM.
Numbers only, in %.

Molecule | Recorded metric | Result units | Numeric readout
CN(C)C(C)(C)C(=O)Nc1cc(F)c2c(c1)CC(CNCCC1CN(c3cnc4c(n3)NC(=O)CO4)C(=O)O1)C2 (centres undefined) | inhibition at 10 µM | % | 57

// next item, inhibition at 10 µM requested
# inhibition at 10 µM (molecule: NC1(COc2cc(F)c3c(c2)CC(CNCCC2CN(c4ccc5c(n4)NC(=O)CO5)C(=O)O2)C3)CC1 (centres undefined) ) is 45

###

target: UniProtKB Q12809; assay: Inhibition of hERG potassium channel expressed in CHO cells by electrophysiological patch clamp assay; format: toxicity, cell-based; conditions: human, cho
Task for the reader: assign each of the following compounds its reported IC20.
Give bare numbers, in µM.

Would you please look over these solved cases?
Compound | Assay target | IC20 [µM]
C[C@H](C(=O)Nc1cc(F)c2c(c1)CC(CNCCC1CN(c3cnc4c(n3)NC(=O)CO4)C(=O)O1)C2)N(C)C (stereo in doubt; 2g) | UniProtKB Q12809 | 81
C[C@H](C(=O)Nc1cc(F)c2c(c1)CC(CNCCC1CN(c3cnc4c(n3)NC(=O)CO4)C(=O)O1)C2)N(C)C (stereo in doubt; 2h) | UniProtKB Q12809 | 55

// next item, IC20 requested
# IC20 (compound: C[C@@H](C(=O)Nc1cc(F)c2c(c1)CC(CNCCC1CN(c3cnc4c(n3)NC(=O)CO4)C(=O)O1)C2)N(C)C (stereo in doubt; 2j) ) is 66

###

system: Klebsiella pneumoniae; test: Antibacterial activity against Klebsiella pneumoniae ATCC 700603 assessed as inhibition in bacterial growth incubated for 20 to 24 hrs by CLSI based broth microdilution method; format: functional; conditions: Klebsiella pneumoniae, ATCC 700603, time 20-24 hrs; read-out: MIC
Recorded metric: MIC (µg/mL)
One number for each entry, in µg/mL.

Would you please look over these solved cases?
Compound | MIC / µg/mL
N#Cc1cc(OC2CNC2)cc2c1CC(CNCCC1CN(c3ccc4c(n3)NC(=O)CO4)C(=O)O1)C2 (stereo unspecified) | 4
N#Cc1cc(OCC2(N)CC2)cc2c1CC(CNCCC1CN(c3ccc4c(n3)NC(=O)CO4)C(=O)O1)C2 (stereo unspecified) | 1
CC(N)COc1cc(F)c2c(c1)CC(CNCCC1CN(c3ccc4c(n3)NC(=O)CO4)C(=O)O1)C2 (stereo unspecified) | 2

Below are some compounds; for each one, tell me its MIC.
1. C[C@@H](N)COc1cc(F)c2c(c1)CC(CN1CCC3(CC1)CN(c1cnc4c(n1)NC(=O)CO4)C(=O)O3)C2 (stereo partly specified)
2. NC1(COc2cc(F)c3c(c2)CC(CNCCC2CN(c4cnc5c(n4)NC(=O)CO5)C(=O)O2)C3)CC1 (stereo unspecified)
3. O=C(CN1CCC1)Nc1cc(F)c2c(c1)CC(CNCCC1CN(c3cnc4c(n3)NC(=O)CO4)C(=O)O1)C2 (stereo unspecified)
4. NC1(COc2cc(F)c3c(c2)CC(CNCCC2CN(c4ccc5c(n4)NC(=O)CO5)C(=O)O2)C3)CC1 (stereo unspecified)

Completion:
[1, 1, 1, 2]

###

system: Acinetobacter baumannii; assay: Antibacterial activity against Acinetobacter baumannii ATCC BAA-747 assessed as inhibition in bacterial growth incubated for 20 to 24 hrs by CLSI based broth microdilution method; format: functional; settings: Acinetobacter baumannii, ATCC BAA-747, time 20-24 hrs; read-out: MIC
Task for the reader: assign each of the following molecules its reported MIC.
Numbers only, in mg/L.

Would you please look over these solved cases?
Molecule | Result units | MIC
NC1(COc2cc(F)c3c(c2)CC(CNCCC2CN(c4cnc5c(n4)NC(=O)CO5)C(=O)O2)C3)CC1 (stereo not given) | mg/L | 0.5
N#Cc1cc(OC2CNC2)cc2c1CC(CNCCC1CN(c3ccc4c(n3)NC(=O)CO4)C(=O)O1)C2 (stereo not given) | mg/L | 4
C[C@H](C(=O)Nc1cc(F)c2c(c1)CC(CNCCC1CN(c3cnc4c(n3)NC(=O)CO4)C(=O)O1)C2)N(C)C (stereo in doubt; 2e) | mg/L | 0.125
C[C@@H](C(=O)Nc1cc(F)c2c(c1)CC(CNCCC1CN(c3cnc4c(n3)NC(=O)CO4)C(=O)O1)C2)N(C)C (stereo in doubt; 2i) | mg/L | 0.25
CN(C)CC(=O)Nc1cc(F)c2c(c1)CC(CNCCC1CN(c3cnc4c(n3)NC(=O)CO4)C(=O)O1)C2 (stereo not given) | mg/L | 0.25

Below are some molecules; for each one, tell me its MIC.
1. N#CCOc1cc(F)c2c(c1)CC(CNCCC1CN(c3ccc4c(n3)NC(=O)CO4)C(=O)O1)C2 (stereo not given)
2. N#Cc1cc(OCCN)cc2c1CC(CNCCC1CN(c3ccc4c(n3)NC(=O)CO4)C(=O)O1)C2 (stereo not given)
3. CC(N)COc1cc(F)c2c(c1)CC(CNCCC1CN(c3ccc4c(n3)NC(=O)CO4)C(=O)O1)C2 (stereo not given)
4. CC(C)(N)COc1cc(C#N)c2c(c1)CC(CNCCC1CN(c3ccc4c(n3)NC(=O)CO4)C(=O)O1)C2 (stereo not given)
5. CS(=O)(=O)NCCOc1cc(C#N)c2c(c1)CC(CNCCC1CN(c3ccc4c(n3)NC(=O)CO4)C(=O)O1)C2 (stereo not given)

Completion:
1. 0.125
2. 1
3. 0.125
4. 0.25
5. 2

Below are some molecules; for each one, tell me its MIC.
1. O=C(CN1CCC1)Nc1cc(F)c2c(c1)CC(CNCCC1CN(c3cnc4c(n3)NC(=O)CO4)C(=O)O1)C2 (stereo not given)
2. CC(N)COc1cc(F)c2c(c1)CC(CCOCC1CN(c3cnc4c(n3)NC(=O)CO4)C(=O)O1)C2 (stereo not given)
3. N#Cc1cc(OCC2CNC2)cc2c1CC(CNCCC1CN(c3ccc4c(n3)NC(=O)CO4)C(=O)O1)C2 (stereo not given)

Completion:
[0.125, 4, 8]

###

target: hERG (KCNH2) (Homo sapiens, UniProt Q12809); assay: Inhibition of hERG potassium channel expressed in CHO cells at 10 uM by electrophysiological patch clamp assay relative to control; type: toxicity, cell-based; settings: CHO cells expressing hERG
Sequence (Q12809 whole entry): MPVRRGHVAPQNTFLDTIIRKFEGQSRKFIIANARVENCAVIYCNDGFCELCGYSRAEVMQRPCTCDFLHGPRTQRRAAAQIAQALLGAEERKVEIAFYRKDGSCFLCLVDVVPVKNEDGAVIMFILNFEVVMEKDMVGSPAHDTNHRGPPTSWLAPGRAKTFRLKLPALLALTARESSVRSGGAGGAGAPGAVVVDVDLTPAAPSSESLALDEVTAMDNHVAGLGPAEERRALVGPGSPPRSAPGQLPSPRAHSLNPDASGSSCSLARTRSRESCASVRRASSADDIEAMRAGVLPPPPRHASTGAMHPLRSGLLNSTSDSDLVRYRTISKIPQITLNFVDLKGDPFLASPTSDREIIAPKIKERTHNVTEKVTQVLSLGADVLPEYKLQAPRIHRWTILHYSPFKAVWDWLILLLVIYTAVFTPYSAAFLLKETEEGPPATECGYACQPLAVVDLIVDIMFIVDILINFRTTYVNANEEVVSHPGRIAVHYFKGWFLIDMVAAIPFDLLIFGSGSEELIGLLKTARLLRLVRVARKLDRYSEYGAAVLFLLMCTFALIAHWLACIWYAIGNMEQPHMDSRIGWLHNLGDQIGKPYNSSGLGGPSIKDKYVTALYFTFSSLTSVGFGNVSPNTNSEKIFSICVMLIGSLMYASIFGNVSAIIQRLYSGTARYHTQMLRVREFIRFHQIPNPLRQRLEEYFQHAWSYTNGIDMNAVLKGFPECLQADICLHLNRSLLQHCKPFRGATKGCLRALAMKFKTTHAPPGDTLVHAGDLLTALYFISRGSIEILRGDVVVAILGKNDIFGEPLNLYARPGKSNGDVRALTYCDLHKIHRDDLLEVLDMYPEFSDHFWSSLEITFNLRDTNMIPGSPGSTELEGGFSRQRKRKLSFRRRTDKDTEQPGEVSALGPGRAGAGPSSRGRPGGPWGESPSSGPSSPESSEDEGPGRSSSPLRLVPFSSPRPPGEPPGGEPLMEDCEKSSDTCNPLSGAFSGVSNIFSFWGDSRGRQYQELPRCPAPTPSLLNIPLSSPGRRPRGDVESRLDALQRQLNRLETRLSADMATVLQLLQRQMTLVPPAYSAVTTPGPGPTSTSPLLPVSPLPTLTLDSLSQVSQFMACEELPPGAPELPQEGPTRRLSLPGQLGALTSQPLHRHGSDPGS
Recorded metric: inhibition at 10 µM (%)
Give bare numbers, in %.

Would you please look over these solved cases?
Compound | Result units | Numeric readout
N#Cc1cccc2c1CC(CNCCC1CN(c3ccc4c(n3)NC(=O)CO4)C(=O)O1)C2 (stereo not drawn) | % | 99
C[C@@H](N)COc1cc(F)c2c(c1)CC(CN1CCC3(CC1)CN(c1cnc4c(n1)NC(=O)CO4)C(=O)O3)C2 (stereo partly drawn) | % | 12
N#Cc1cc(OCC2(N)CC2)cc2c1CC(CNCCC1CN(c3ccc4c(n3)NC(=O)CO4)C(=O)O1)C2 (stereo not drawn) | % | 28
CC(N)COc1cc(F)c2c(c1)CC(CNCCC1CN(c3ccc4c(n3)NC(=O)CO4)C(=O)O1)C2 (stereo not drawn) | % | 3.9
CC(C)(N)COc1cc(C#N)c2c(c1)CC(CNCCC1CN(c3ccc4c(n3)NC(=O)CO4)C(=O)O1)C2 (stereo not drawn) | % | 11

hERG (KCNH2) (Homo sapiens, UniProt Q12809) assay, compound N#CCOc1cc(F)c2c(c1)CC(CNCCC1CN(c3ccc4c(n3)NC(=O)CO4)C(=O)O1)C2 (stereo not drawn) , recorded inhibition at 10 µM = 98

###

biological target: hERG (KCNH2) (Homo sapiens); test: Inhibition of hERG potassium channel expressed in CHO cells at 10 uM by electrophysiological patch clamp assay relative to control; type: toxicity, cell-based; settings: CHO cells expressing hERG
Recorded metric: inhibition at 10 µM

Compound | Result
CN(C)CC(=O)Nc1cc(F)c2c(c1)CC(CNCCC1CN(c3cnc4c(n3)NC(=O)CO4)C(=O)O1)C2 (centres undefined) | < 1%

Below are some compounds; for each one, tell me its inhibition at 10 µM.
1. C[C@H](C(=O)Nc1cc(F)c2c(c1)CC(CNCCC1CN(c3cnc4c(n3)NC(=O)CO4)C(=O)O1)C2)N(C)C (stereo in doubt; 2e)
2. O=C(CN1CCC1)Nc1cc(F)c2c(c1)CC(CNCCC1CN(c3cnc4c(n3)NC(=O)CO4)C(=O)O1)C2 (centres undefined)
3. CS(=O)(=O)NCCOc1cc(C#N)c2c(c1)CC(CNCCC1CN(c3ccc4c(n3)NC(=O)CO4)C(=O)O1)C2 (centres undefined)

Completion:
1: < 1%; 2: < 1%; 3: 30%

The reported measurements were obtained from ChEMBL document CHEMBL5390317.
